Tested on: ACHN renal
Assay: NCI tumour cell line growth inhibition, 48 h
measured.metric: TGI

compound	system.tested	measured.metric	observed.measurement
C#C[C@@H](CCCC)OC(=O)N[C@H](C)c1ccccc1	ACHN renal	TGI	> 100 µM
O=C1Nc2ccccc2SC1=C(C(=O)c1ccccc1)C(=O)c1ccccc1	ACHN renal	TGI	> 100 µM
COC(=O)C(=O)C(C#N)c1c(Cl)cccc1Cl (centres undefined)	ACHN renal	TGI	> 100 µM
N#Cc1cc2c(cc1Cl)SC(=Nc1ccccc1)N(S(=O)(=O)c1ccc(Br)s1)S2(=O)=O	ACHN renal	TGI	37.3 µM
CC1(C2CCC3(C)C(C2)C3Sc2ccccc2)OCCO1 (centres undefined)	ACHN renal	TGI	46.9 µM
Cn1c2ccccc2c2c3c(c4c5ccccc5n(C)c4c21)C(=O)N(c1ccccc1)C3=O	ACHN renal	TGI	> 100 µM
O=c1[nH]c2ccc(C(F)(F)F)cc2nc1C(F)(F)F	ACHN renal	TGI	> 100 µM
O=C(N/C(=C\c1ccc(F)cc1)c1nc2ccccc2[nH]1)c1ccccc1	ACHN renal	TGI	> 100 µM
O=C(O)C1CSC2(CCCN(Cc3ccccc3)C2)N1 (centres undefined)	ACHN renal	TGI	> 100 µM
Cc1ccc2c(=O)cc(-c3cccc(F)c3)[nH]c2n1	ACHN renal	TGI	> 100 µM
CC(C)=C=CP(=O)(O)c1ccccc1	ACHN renal	TGI	> 100 µM
CN(C)Cc1cc(C(C)(C)C)cc(CN(C)C)c1O	ACHN renal	TGI	> 100 µM
Fc1ccc2c(c1)nc1n2C(c2c(F)cccc2F)SC1 (centres undefined)	ACHN renal	TGI	> 100 µM
NC1=Nc2ccccc2Sc2ccccc21	ACHN renal	TGI	> 100 µM
CC(C)(C)CC(C)(C)NCC(O)COc1ccc(C(C)(C)c2ccc(OCC(O)CNC(C)(C)CC(C)(C)C)cc2)cc1 (centres undefined)	ACHN renal	TGI	3.17 µM
Cc1ccc2c(c1)Nc1ccccc1P2(=O)O	ACHN renal	TGI	> 100 µM
COc1cc(-c2nc(SC)nc3c2CCc2ccccc2-3)cc(OC)c1OC	ACHN renal	TGI	> 100 µM
CCCCOP1(=O)CC(C)=C(Cl)C(C)(OC)C1 (centres undefined)	ACHN renal	TGI	> 100 µM
C=CCO[C@H]1CC[C@@]2(C)C(CC[C@]3(C)C2CC=C2[C@@H]4[C@@H](C)C(C)CC[C@]4(C(=O)O)CCC23C)C1(C)C (some centres undefined)	ACHN renal	TGI	29.8 µM
CC1=NN(c2nc(N)nc(-c3cc4ccccc4oc3=N)n2)C(C)(C)C1	ACHN renal	TGI	34.8 µM
Cc1nc(-n2nc(-c3ccccc3)cc2-c2ccccc2)sc1C(=O)CC(=O)C(=O)Nc1ccc(O)cc1	ACHN renal	TGI	> 100 µM
N=C(N)c1ccc(-c2ccc(-c3ccc(Cl)cc3Cl)s2)nc1	ACHN renal	TGI	3.16 µM
Cc1cc2nc(-c3ccc(O)c(O)c3)n(Cc3ccc(O)c(O)c3)c2cc1C	ACHN renal	TGI	59.6 µM
Cc1ccsc1/C=N/Nc1cc(C)c2ccccc2n1	ACHN renal	TGI	34.9 µM
O=S(=O)(Nc1ccc(Cl)c(Cl)c1)c1ccc(-c2cnc(C3CC3)o2)cc1	ACHN renal	TGI	30.7 µM
Nc1ccn(CC(O)c2cc3ccccc3[nH]2)c(=O)n1 (centres undefined)	ACHN renal	TGI	> 100 µM
COC(=O)C(/C(=N\O)C(=O)Nc1ccc(Br)cc1)c1nc2ccccc2[nH]c1=O (centres undefined)	ACHN renal	TGI	> 100 µM
CCOC(=O)N(O)c1ccc(/C=C/c2ccccc2)cc1	ACHN renal	TGI	> 93.7 µM
COc1ccc(/C=C(/c2ccc(OC)cc2)c2c(Cl)cc(Cl)c(/C(=C\c3ccc(OC)cc3)c3ccc(OC)cc3)c2N=Nc2ccccc2)cc1	ACHN renal	TGI	> 100 µM
Cc1cc(OCC(O)CO)ccc1Cl (centres undefined)	ACHN renal	TGI	> 100 µM
Cc1ccc(C)c(NC(=O)C(=O)Nn2c(=S)[nH]c3ccccc3c2=O)c1	ACHN renal	TGI	> 100 µM
CC1CN=C(c2ccc(CN3CCC(CCCC4CCN(Cc5ccc(C6=NCC(C)N6)cc5)CC4)CC3)cc2)N1 (centres undefined)	ACHN renal	TGI	> 100 µM
O=C1C=CC(=O)c2c(O)c(N(CCCl)CCCl)c(Cl)c(O)c21	ACHN renal	TGI	5.6 µM
OC(CCl)CN1CC[N+]2(CC1)CC[N+]1(CCN(CC(O)CCl)CC1)CC2 (centres undefined)	ACHN renal	TGI	> 50 µM
O=c1onc(Nc2ccccc2)n1-c1ccccc1	ACHN renal	TGI	> 100 µM
CCCCOc1ccc(S(=O)(=O)/N=C(\NO)Nc2ccc(Cl)cc2)cc1	ACHN renal	TGI	28.2 µM
COc1ccc(/C=C2/CSC/C(=C/c3ccc(OC)c(OC)c3)C2=O)cc1OC	ACHN renal	TGI	5.58 µM
Cc1ccc(S(=O)(=O)NC(=O)NC(CC(=O)O)C(=O)O)cc1 (centres undefined)	ACHN renal	TGI	> 100 µM
CC(CC(=O)Nc1ccc(NC(=O)CC(C)N=NC(N)=O)cc1)N=NC(N)=O (centres undefined)	ACHN renal	TGI	> 100 µM
C=CCCC(=O)CC(=O)OCc1ccccc1	ACHN renal	TGI	> 100 µM
CC(C)OP(=O)(OC(C)C)/C(C#N)=C/c1c[nH]c2ccccc12	ACHN renal	TGI	> 100 µM
CCOC(=O)C1=C(C)N(Cc2ccccc2)C2(O)C(OC)CC(=O)C3C(=O)N(c4ccccc4)C(=O)C132 (centres undefined)	ACHN renal	TGI	48.4 µM
COc1cc2c(=O)n(CC3CCCCC3)c3c4cc[nH]c4ncc3c2cc1OC	ACHN renal	TGI	10.4 µM
N#Cc1c(N2CCCC2)nsc1Nc1ccccc1	ACHN renal	TGI	> 100 µM
